- protocol.text: Tissue bio-distribution in mice
- Format: in vivo
- recorded.conditions: both, mouse, lungs, ip, 5 mg/kg
readout.kind: concentration at 24 h (ng/g)
Quick reminder: number only, in ng/g, skip the unit.

# get_value(readout='concentration at 24 h', item= O=C(NC(=S)Nc1ccc(-c2nc3ccccc3o2)cc1)c1ccc2ccccc2c1 ) 93.7

====

- protocol.text: Tissue bio-distribution in mice
- Assay type: in vivo
- recorded.conditions: mouse, liver, ip, 5 mg/kg
readout.kind: concentration at 24 h (ng/g)
Quick reminder: number only, in ng/g, skip the unit.

# get_value(readout='concentration at 24 h', item= O=C(NC(=S)Nc1ccc(-c2nc3ccccc3o2)cc1)c1ccc2ccccc2c1 [PDS-0330] ) 407

====

- protocol.text: Tissue bio-distribution in mice
- Assay type: in vivo
- recorded.conditions: both, mouse, liver, ip, 5 mg/kg
readout.kind: concentration at 8 h (ng/g)
Quick reminder: number only, in ng/g, skip the unit.

# get_value(readout='concentration at 8 h', item= O=C(NC(=S)Nc1ccc(-c2nc3ccccc3o2)cc1)c1ccc2ccccc2c1 ) 807

====

- protocol.text: Plasma pharmacokinetics in mice
- Type: in vivo
- recorded.conditions: both, C57BL6, mouse, plasma, iv, 1 mg/kg
readout.kind: AUC(0-t) (ng·h/mL)
Quick reminder: number only, in ng·h/mL, skip the unit.

# get_value(readout='AUC(0-t)', item= COc1cc2ccccc2cc1C(=O)NC(=S)Nc1ccc(-c2nc3ccccc3[nH]2)cc1 ) 1140

====

- study.target: human claudin-1 (Homo sapiens)
- protocol.text: Microscale thermophoresis
- Format: binding
- recorded.conditions: equilibrium dissociation constant (Kd), Cy3-labeled human claudin-1, 25 °C, eight independent acquisitions
readout.kind: pKd
Convention used: pKd is expressed as -log10 of the molar concentration.

Value wanted: pKd (human claudin-1 (Homo sapiens)) of entry O=C(NC(=S)Nc1ccc(-c2nc3ccccc3o2)cc1)c1ccc2ccccc2c1 [PDS-0330] 4.64

====

- protocol.text: Tissue bio-distribution in mice
- Type: in vivo
- recorded.conditions: both, mouse, liver, ip, 5 mg/kg
readout.kind: concentration at 2 h (ng/g)
Quick reminder: number only, in ng/g, skip the unit.

# get_value(readout='concentration at 2 h', item= O=C(NC(=S)Nc1ccc(-c2nc3ccccc3o2)cc1)c1ccc2ccccc2c1 ) 277

====

- study.target: UniProt:O95832
- Sequence (O95832 1-211): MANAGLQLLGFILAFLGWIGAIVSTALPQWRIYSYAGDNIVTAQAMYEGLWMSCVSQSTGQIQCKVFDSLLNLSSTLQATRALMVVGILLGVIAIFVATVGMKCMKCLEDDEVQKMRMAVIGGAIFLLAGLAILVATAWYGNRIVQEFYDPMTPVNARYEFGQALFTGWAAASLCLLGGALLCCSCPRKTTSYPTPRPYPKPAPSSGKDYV
- protocol.text: Microscale thermophoresis
- Type: binding
- recorded.conditions: binding affinity, 37°C, fit to Hill-Langmuir equation
readout.kind: Kd (µM)
Quick reminder: number only, in µM, skip the unit.

# get_value(readout='Kd', item= O=C(NC(=S)Nc1ccc(-c2nc3ccccc3o2)cc1)c1ccc2ccccc2c1 [PDS-0330] ) 44.9

====

- protocol.text: Plasma pharmacokinetics in mice
- Assay type: in vivo
- recorded.conditions: both, C57BL6, mouse, plasma, iv, 1 mg/kg, Vss, I-6 1mg/kg intravenous, mice
readout.kind: Vd
Please state the value followed by its unit.

# get_value(readout='Vd', item= COc1cc2ccccc2cc1C(=O)NC(=S)Nc1ccc(-c2nc3ccccc3[nH]2)cc1 [I-6] ) 4.7 L/kg
